experimentalTarget: human NPFF2R (human, UniProt Q9Y5X5 1-522)
Sequence (Q9Y5X5 whole entry): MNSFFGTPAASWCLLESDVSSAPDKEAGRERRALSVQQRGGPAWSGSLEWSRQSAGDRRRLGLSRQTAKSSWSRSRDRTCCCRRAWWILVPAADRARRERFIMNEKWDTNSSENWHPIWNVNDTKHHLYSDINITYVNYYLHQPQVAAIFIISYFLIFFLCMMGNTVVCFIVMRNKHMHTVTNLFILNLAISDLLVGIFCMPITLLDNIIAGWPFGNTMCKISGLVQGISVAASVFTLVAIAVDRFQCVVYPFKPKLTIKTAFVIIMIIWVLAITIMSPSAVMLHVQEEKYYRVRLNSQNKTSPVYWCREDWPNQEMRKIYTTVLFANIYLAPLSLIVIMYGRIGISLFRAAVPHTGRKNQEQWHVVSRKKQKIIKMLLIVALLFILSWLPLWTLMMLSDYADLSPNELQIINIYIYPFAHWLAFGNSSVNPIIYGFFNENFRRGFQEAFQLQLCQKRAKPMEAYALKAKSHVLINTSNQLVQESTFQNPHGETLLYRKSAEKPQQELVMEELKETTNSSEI
protocol: cell-based or functional assay
Bridges are numbered along the chain shown (N, C = ends). Where no end group is shown, it is not given here. [ ]: non-standard residue; d: D form. hArg = N=C(N)NCCCC[C@H](N)C(=O)O; Nle = CCCC[C@H](N)C(=O)O; L1 = not defined here; L5 = not defined here; L6 = not defined here; L8 = not defined here
metricName: NPFF2R EC50 0% FBS (µM)

INSERT INTO assay_data (binder, metricname, observedresult) VALUES
  ('SRAHQCS[Nle]ETRTCDINPAWYTG[hArg]GIRPVGRF-NH2 (linker 6-13 via L6; reading uncertain) [Conjugate 270]', 'NPFF2R EC50 0% FBS', 0.27),
  ('SRAHQCS[Nle]ETRTCDINPAWYTG[hArg]GIRPVGRF-NH2 (linker 6-13 via L1; reading uncertain) [Conjugate 251]', 'NPFF2R EC50 0% FBS', 0.92),
  ('SRAHQCS[Nle]ETRTCDINPAWYTG[hArg]GIRPVGRF-NH2 (linker 6-13 via L5; reading uncertain) [Conjugate 263]', 'NPFF2R EC50 0% FBS', 0.52),
  ('SRAHQCS[Nle]ETRTCDINPAWYTG[hArg]GIRPVGRF-NH2 (linker 6-13 via L8; reading uncertain) [Conjugate 267]', 'NPFF2R EC50 0% FBS', 0.56);
